Source: patent US10925876B2

target under test: sGC α1/β1 heterodimer (Homo sapiens, UniProt Q02108+Q02153)
Construct: expressed in transfected cells
Sequence (Q02108 1-690): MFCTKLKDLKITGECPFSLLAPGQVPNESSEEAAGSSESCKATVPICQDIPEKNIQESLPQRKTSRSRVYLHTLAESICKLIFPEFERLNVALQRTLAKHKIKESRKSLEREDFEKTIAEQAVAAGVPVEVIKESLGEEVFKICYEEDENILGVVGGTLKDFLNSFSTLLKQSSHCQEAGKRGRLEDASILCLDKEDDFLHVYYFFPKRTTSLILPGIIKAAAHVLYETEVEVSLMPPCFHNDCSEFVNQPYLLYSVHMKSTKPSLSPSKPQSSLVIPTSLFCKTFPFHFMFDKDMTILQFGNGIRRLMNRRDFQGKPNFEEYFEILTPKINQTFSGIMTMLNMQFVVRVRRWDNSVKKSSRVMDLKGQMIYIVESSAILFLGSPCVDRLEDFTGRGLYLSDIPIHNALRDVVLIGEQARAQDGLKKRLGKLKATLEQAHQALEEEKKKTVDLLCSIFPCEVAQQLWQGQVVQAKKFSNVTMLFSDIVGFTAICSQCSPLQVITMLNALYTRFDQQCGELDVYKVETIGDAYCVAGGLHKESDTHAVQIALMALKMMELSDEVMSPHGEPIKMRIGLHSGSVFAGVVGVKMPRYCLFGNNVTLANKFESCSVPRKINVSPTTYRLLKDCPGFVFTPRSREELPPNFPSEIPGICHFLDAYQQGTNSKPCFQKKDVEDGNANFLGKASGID
Sequence (Q02153 1-619): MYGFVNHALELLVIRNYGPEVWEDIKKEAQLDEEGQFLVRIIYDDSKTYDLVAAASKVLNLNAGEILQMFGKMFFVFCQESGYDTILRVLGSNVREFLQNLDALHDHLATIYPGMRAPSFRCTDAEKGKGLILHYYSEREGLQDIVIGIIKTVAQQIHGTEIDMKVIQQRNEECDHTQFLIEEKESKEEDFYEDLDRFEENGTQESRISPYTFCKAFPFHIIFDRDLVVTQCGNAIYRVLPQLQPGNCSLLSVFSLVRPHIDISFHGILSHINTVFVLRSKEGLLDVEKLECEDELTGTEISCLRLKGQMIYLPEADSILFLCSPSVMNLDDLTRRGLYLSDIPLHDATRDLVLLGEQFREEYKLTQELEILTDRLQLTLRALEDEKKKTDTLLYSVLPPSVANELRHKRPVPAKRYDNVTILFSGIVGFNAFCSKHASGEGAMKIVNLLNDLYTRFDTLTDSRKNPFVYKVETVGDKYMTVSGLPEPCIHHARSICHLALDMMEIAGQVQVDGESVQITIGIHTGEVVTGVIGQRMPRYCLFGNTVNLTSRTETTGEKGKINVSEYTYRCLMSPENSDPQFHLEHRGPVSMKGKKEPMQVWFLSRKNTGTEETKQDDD
test method notes: Cell-Based sGC Functional Assay (CASA Assay), cGMP generation in CHO-K1/sGC cells;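 also: reference Compound A is a published heme-dependent sGC activator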
condition details: maximum cGMP production of Compound A set to 100% activation, read-out: % Act. (percent activation relative to Compound A)
outcome measure: Emax (%)

CC1(c2ccc(F)c(F)c2)C(=O)Nc2nc(-c3cn4ncnc4c(CCCC(F)(F)F)n3)nc(N)c21 (stereo not drawn) [Example 38B]; 120

1. CCCCc1nc(-c2nc(O)c3c(n2)NC(=O)C3(C)c2ccc(C)cn2)cn2ncnc12 (stereo not drawn) [Example 161B]
2. CC1(c2ccc(F)c(F)c2)C(=O)Nc2nc(-c3cn4ncnc4c(CCCC(F)(F)F)n3)nc(O)c21 (stereo not drawn) [Example 146B]
In the pair 1 and 2 , the larger recorded Emax belongs to which? Field: selected label. Fill in the label of the entry you choose.
2
(2: 154%, 1: 95%)

A. CC1(c2cccc(F)c2)C(=O)Nc2nc(-c3cn4ncnc4c(CCC(F)(F)C(F)(F)F)n3)nc(O)c21 (stereo not drawn) [Example 129B]
B. CCCCc1nc(-c2nc(N)c3c(n2)NC(=O)[C@@]3(C)c2ccc(F)cc2)cn2ncnc12 [Example 60A]
In the pair A and B , the larger recorded Emax belongs to which? Field: selected label. Fill in the label of the entry you choose.
B

A. Nc1nc(-c2cn3ncnc3c(CCCC(F)(F)F)n2)nc2c1C(c1ccc(F)cc1)(C1CC1)C(=O)N2 (stereo not drawn) [Example 30B]
B. CC1(c2ccc(F)cn2)C(=O)Nc2nc(-c3cn4ncnc4c(CCCC(F)(F)F)n3)nc(O)c21 (stereo not drawn) [Example 136B]
C. CCCc1nc(-c2nc(O)c3c(n2)NC(=O)C3(C)c2ccc(Cl)cc2)cn2ncnc12 (stereo not drawn) [Example 164A]
Returns the items ordered by Emax, from maximum to minimum. Return the labels ranked in the requested order, please.
C, A, B

a. C[C@@]1(c2ccc(F)cc2)C(=O)Nc2nc(-c3cn4ncnc4c(Cc4ccc(F)cc4)n3)nc(N)c21 [Example 85B]
b. CCCc1nc(-c2nc(N)c3c(n2)NC(=O)C3(C)c2ccc(F)cn2)cn2ncnc12 (stereo not drawn) [Example 54B]
// select label with min value of measured Emax from [ a , b ] Field: selected label. Fill in the label of the entry you choose.
a

P. CC1(c2ccc(F)cn2)C(=O)Nc2nc(-c3cn4ncnc4c(CCC(F)(F)C(F)(F)F)n3)nc(O)c21 (stereo not drawn) [Example 122B]
Q. O=C1Nc2nc(-c3cn4ncnc4c(CCCC(F)(F)F)n3)nc(O)c2C1(c1ccc(Cl)cc1)C1CC1 (stereo not drawn) [Example 140B]
// select label with min value of measured Emax from [ P , Q ] Field: selected label. Fill in the label of the entry you choose.
P
(P: 100%, Q: 150%)
